Measured values drawn from the supplement of paper PMC11208160 for this set.

# Protocol notes: recombinant barcode read abundance after kanamycin selection (control-corrected) (log10(CPM+1)); higher = more efficient recombination; sequences stand for … in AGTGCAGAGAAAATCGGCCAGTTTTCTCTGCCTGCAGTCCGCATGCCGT…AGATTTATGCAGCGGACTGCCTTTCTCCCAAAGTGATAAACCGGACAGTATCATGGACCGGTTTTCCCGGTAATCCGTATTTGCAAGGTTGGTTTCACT; site = the 11-nt target
Label Fulfilled when recombinant barcode read abundance (log10) is at or above 0.2; otherwise label Not fulfilled.

| Seq string | Group label |
| --- | --- |
| TATGTAGCTTGGGTTCTAACCTGTTGCCC (site TATGTAGCTGG) | Fulfilled |
| ACCGCGTCTTGGGTTCTAACCTGTTGCAT (site TTGATAGCTTA) | Not fulfilled |
| GACTCTCCTTGGGTTCTAACCTGTTGCCT (site GACTCTCCTAT) | Not fulfilled |

For this sequence, is measured recombinant barcode read abundance (log10) 0.2 or higher? AATGCTCCTTGGGTTCTAACCTGTTGCGT (site AATGCTCCTAC) Fulfilled

For this sequence, is measured recombinant barcode read abundance (log10) 0.2 or higher? GCGGAAGCTTGGGTTCTAACCTGTTGCCT (site GGGGAAGCTAG) Fulfilled

For this sequence, is measured recombinant barcode read abundance (log10) 0.2 or higher? TCCATCCCTTGGGTTCTAACCTGTTGCCT (site TCCATCCCTAG) Fulfilled

For this sequence, is measured recombinant barcode read abundance (log10) 0.2 or higher? CGTTCTCCTTGGGTTCTAACCTGTTGCCT (site CGTTCTCCTAG) Not fulfilled

For this sequence, is measured recombinant barcode read abundance (log10) 0.2 or higher? AGGGAAGCTTGGGTTCTAACCTGTTGCCT (site AGGGTAGCTAG) Fulfilled

For this sequence, is measured recombinant barcode read abundance (log10) 0.2 or higher? TATTATACTTGGGTTCTAACCTGTTGCAT (site TATTATACTAC) Not fulfilled

For this sequence, is measured recombinant barcode read abundance (log10) 0.2 or higher? AGGCCCACTTGGGTTCTAACCTGTTGCAT (site GCTGAGTCTTA) Not fulfilled

For this sequence, is measured recombinant barcode read abundance (log10) 0.2 or higher? GCACACTCTTGGGTTCTAACCTGTTGCCT (site GCACCCTCTAG) Not fulfilled

For this sequence, is measured recombinant barcode read abundance (log10) 0.2 or higher? TGGCAATCTTGGGTTCTAACCTGTTGCCT (site TGGCAATCTAG) Fulfilled

For this sequence, is measured recombinant barcode read abundance (log10) 0.2 or higher? TTGAGTACTTGGGTTCTAACCTGTTGCCG (site TTGAGTACTCG) Fulfilled

----------
# Protocol notes: recombinant UMI read abundance after kanamycin selection (control-corrected) (log10(CPM+1)); higher = more efficient recombination; extreme values may be limits of the assay; sequences stand for … in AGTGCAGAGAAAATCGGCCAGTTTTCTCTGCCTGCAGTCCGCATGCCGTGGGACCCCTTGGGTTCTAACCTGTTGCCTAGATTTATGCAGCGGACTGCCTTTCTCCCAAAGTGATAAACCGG…AGGTTGGTTTCACT; site = the 11-nt donor
Label Condition met when recombinant UMI read abundance (log10) is at or above 0.6; otherwise label Condition not met.

Previously resolved entries follow.
| Seq string | Group label |
| --- | --- |
| CCATGCTCATGGACCGGTTTTCCCGGTAATCCGTATTTGAA (site CGATGCTCTTT) | Condition not met |
| GGTACTTCATGGACCGGTTTTCCCGGTAATCCGTATTTGAT (site GGTACTTCTAT) | Condition not met |
| CGTTCCCCATGGACCGGTTTTCCCGGTAATCCGTATTTGTA (site AGTTCCCCTTA) | Condition not met |
| TGAGTTTCATGGACCGGTTTTCCCGGTAATCCGTATTTGAG (site TGAGTTTCTCT) | Condition met |

For this sequence, is measured recombinant UMI read abundance (log10) 0.6 or higher? TGCGTTACATGGACCGGTTTTCCCGGTAATCCGTATTTGTT (site TGCGTTACTAA) Condition not met

For this sequence, is measured recombinant UMI read abundance (log10) 0.6 or higher? TCCACGCCATGGACCGGTTTTCCCGGTAATCCGTATTTGCC (site TCCACGCCTGG) Condition not met

For this sequence, is measured recombinant UMI read abundance (log10) 0.6 or higher? ATTGAGTCATGGACCGGTTTTCCCGGTAATCCGTATTTGGT (site ATTGAGCCTAC) Condition not met

For this sequence, is measured recombinant UMI read abundance (log10) 0.6 or higher? AAGCGTCCATGGACCGGTTTTCCCGGTAATCCGTATTTGAT (site AACCGTCCTAT) Condition not met

For this sequence, is measured recombinant UMI read abundance (log10) 0.6 or higher? GAGAAAACATGGACCGGTTTTCCCGGTAATCCGTATTTGCT (site GTGAAAACTAG) Condition not met

For this sequence, is measured recombinant UMI read abundance (log10) 0.6 or higher? GGTCAAACATGGACCGGTTTTCCCGGTAATCCGTATTTGTA (site GGTCAAACTTA) Condition met

For this sequence, is measured recombinant UMI read abundance (log10) 0.6 or higher? CAATCCCCATGGACCGGTTTTCCCGGTAATCCGTATTTGCT (site CAATCCCCTAG) Condition met

For this sequence, is measured recombinant UMI read abundance (log10) 0.6 or higher? ATCTACACATGGACCGGTTTTCCCGGTAATCCGTATTTGCT (site GTCTACACTAG) Condition met
